Hey, just so you know, these numbers are from patent US8846710B2.

tested on: interferon (α) (IFN-α); experiment: Cytokine induction in human cells: IFN-α secreted by PBMC into culture media (ELISA); assay type: cell-based; details: Table 11; human PBMC; median where tested in more than one experiment
Reported Minimum Effective Concentration IFN values for the following compounds.
Provide only the numeric value, understood in µM.

- compound: "COCCc1nc2c(N)nc3ccccc3c2n1CCCCCCCCNS(C)(=O)=O [Analog 118]"
  Minimum Effective Concentration IFN (µM): 0.014

// below: Minimum Effective Concentration IFN requested for another compound
Ask | Check the records and state Minimum Effective Concentration IFN for COCCc1nc2c(N)nc3ccccc3c2n1CCOCCN(C)C(=O)c1ccccc1 [Analog 120]
Reply | 0.04

* * *

Reported minimal effective concentration values for the following molecules.
test system: interferon (α) (IFN-α); assay: Cytokine induction in human cells: IFN-α secreted by PBMC into culture media (ELISA); format: cell-based; settings: Table 10; human PBMC; lowest tested concentration inducing IFN-α over usually 20 pg/mL; median where more than one experiment; read-out: Minimum Effective Concentration (μM) IFN

Example cases with answers are listed next.
- molecule: "Nc1nc2cc(-c3ccccc3)ccc2c2c1nc(CCO)n2CCCN1CCCC1=O [Example 156]"
  observable: "minimal effective concentration"
  test-value: ">30 µM"
- molecule: "Nc1nc2cc(-c3cccnc3)ccc2c2c1nc(CCO)n2CCCN1CCCC1=O [Example 160]"
  observable: "minimal effective concentration"
  test-value: "30 µM"

Ask | Check the records and state minimal effective concentration for COCCc1nc2c(N)nc3cc(-c4ccccc4)ccc3c2n1CCCN1CCCC1=O [Analog 21]
Reply | 0.12 µM

* * *

Reported Minimum Effective Concentration IFN values for the following compounds.
system: interferon (α) (IFN-α); assay: Cytokine induction in human cells: IFN-α secreted by PBMC into culture media (ELISA); assay type: cell-based; conditions: Table 11; human PBMC; median where tested in more than one experiment
Quote the value and follow it with the unit of measurement.

- smiles-structure: "CCc1nc2c(N)nc3ccccc3c2n1CCCCCS(C)(=O)=O"
  measured-on: "interferon (α) (IFN-α)"
  Minimum Effective Concentration IFN: "0.12 µM"

Ask | Check the records and state Minimum Effective Concentration IFN for CC(C)(CN)Cn1c(CCO)nc2c(N)nc3ccccc3c21
Reply | 0.37 µM

Ask | Check the records and state Minimum Effective Concentration IFN for CCOCc1nc2c(N)nc3ccccc3c2n1CC(C)(C)N
Reply | 0.12 µM

Ask | Check the records and state Minimum Effective Concentration IFN for CCCCNC(=O)NCCCn1c(COCC)nc2c(N)nc3ccccc3c21
Reply | 0.37 µM

Ask | Check the records and state Minimum Effective Concentration IFN for CCc1nc2c(N)nc3ccccc3c2n1CCCNS(C)(=O)=O
Reply | 1.11 µM

Ask | Check the records and state Minimum Effective Concentration IFN for COCc1nc2c(N)nc3ccccc3c2n1CC(C)(C)CNC(=O)c1ccccc1
Reply | 1.11 µM

* * *

test system: tumor necrosis factor (α) (TNF-α); experiment: Cytokine induction in human cells: TNF-α secreted by PBMC into culture media (ORIGEN M-Series immunoassay); assay type: cell-based; conditions: Table 7; maximal response in dose response curve; background-subtracted, reference-adjusted; median
Reported Maximal Response (pg/mL) TNF values for the following compounds.
Provide only the numeric value, understood in pg/mL.

- smiles-structure: "CCOCc1nc2c(N)nc3ccccc3c2n1CC(C)(C)NS(C)(=O)=O"
  unit-text: "pg/mL"
  Maximal Response (pg/mL) TNF: 10125
- smiles-structure: "CC(C)(Cn1c(CO)nc2c(N)nc3ccccc3c21)NS(C)(=O)=O"
  unit-text: "pg/mL"
  Maximal Response (pg/mL) TNF: 121
- smiles-structure: "Cc1nc2c(N)nc3ccccc3c2n1CC(C)(C)NS(C)(=O)=O"
  unit-text: "pg/mL"
  Maximal Response (pg/mL) TNF: 1518
- smiles-structure: "CCCc1nc2c(N)nc3ccccc3c2n1CC(C)(C)NS(C)(=O)=O"
  unit-text: "pg/mL"
  Maximal Response (pg/mL) TNF: 7245

Ask | Check the records and state Maximal Response (pg/mL) TNF for CCc1nc2c(N)nc3ccccc3c2n1CC(C)(C)NS(C)(=O)=O
Reply | 3670

Ask | Check the records and state Maximal Response (pg/mL) TNF for COCCc1nc2c(N)nc3ccccc3c2n1CC(C)(C)NS(C)(=O)=O
Reply | 12518

* * *

Tested on: interferon (α) (IFN-α)
Assay: Cytokine induction in human cells: IFN-α secreted by PBMC into culture media (ELISA)
Format: cell-based
Settings: Table 10; human PBMC; lowest tested concentration inducing IFN-α over usually 20 pg/mL; median where more than one experiment; read-out: Minimum Effective Concentration (μM) IFN
Method: Cytokine Induction in Human Cells An in vitro human blood cell system is used to assess cytokine induction. […] Following incubation the plates are centrifuged for 10 minutes at 1000 rpm (approximately 200×g) at 4° C. […] The samples are analyzed for IFN-α by ELISA and for TNF-α by IGEN/BioVeris Assay. […] IFN-α concentration is determined with a human multi-subtype calorimetric sandwich ELISA (Catalog Number 41105) from PBL Biomedical Laboratories, Piscataway, N.J. Results are expressed in pg/mL. […]
Reported minimal effective concentration values for the following molecules.
Quote the value and follow it with the unit of measurement.

Example cases with answers are listed next.
- molecule: "CCCc1nc2c(N)nc3cc(-c4cccnc4)ccc3c2n1CCCCNC(=O)NC1CCCC1 [Analog 34]"
  test-value: "0.014 µM"
- molecule: "CC(C)Cn1c(CCO)nc2c(N)nc3cc(-c4cncc(CO)c4)ccc3c21 [Example 159]"
  test-value: "0.12 µM"
- molecule: "CCOCc1nc2c(N)nc3cc(-c4cccnc4)ccc3c2n1CC(C)C [Analog 26]"
  test-value: "0.014 µM"

// below: minimal effective concentration requested for another molecule
Ask | Check the records and state minimal effective concentration for CCCc1nc2c(N)nc3cc(-c4cccnc4)ccc3c2n1CC1CCN(C(=O)C(C)C)CC1 [Analog 20]
Reply | 0.12 µM

* * *

Reported Maximal Response IFN values for the following molecules.
system: interferon (α) (IFN-α); experiment: Cytokine induction in human cells: IFN-α secreted by PBMC into culture media (ELISA); format: cell-based; details: Table 12; human PBMC; median where tested in more than one experiment
Quote the value and follow it with the unit of measurement.

Example cases with answers are listed next.
- smiles-structure: "CS(=O)(=O)NCCn1c(CCO)nc2c(N)nc3cccnc3c21"
  measured-on: "interferon (α) (IFN-α)"
  Maximal Response IFN: "49 pg/mL"
- smiles-structure: "CC(C)(O)Cn1c(CCO)nc2c(N)nc3cccnc3c21"
  measured-on: "interferon (α) (IFN-α)"
  Maximal Response IFN: "2063 pg/mL"
- smiles-structure: "CC(C)(Cn1c(CO)nc2c(N)nc3cccnc3c21)NS(C)(=O)=O"
  measured-on: "interferon (α) (IFN-α)"
  Maximal Response IFN: "1914 pg/mL"
- smiles-structure: "COCCc1nc2c(N)nc3cccnc3c2n1CC(C)(C)O"
  measured-on: "interferon (α) (IFN-α)"
  Maximal Response IFN: "3142 pg/mL"
- smiles-structure: "CCOCc1nc2c(N)nc3cccnc3c2n1CC(C)(C)O"
  measured-on: "interferon (α) (IFN-α)"
  Maximal Response IFN: "1674 pg/mL"

Ask | Check the records and state Maximal Response IFN for Cc1nc2c(N)nc3cccnc3c2n1CC(C)(C)O
Reply | 1952 pg/mL

Ask | Check the records and state Maximal Response IFN for CCCc1nc2c(N)nc3cccnc3c2n1CC(C)(C)O
Reply | 2484 pg/mL

Ask | Check the records and state Maximal Response IFN for CC(C)(F)Cn1c(CO)nc2c(N)nc3cccnc3c21
Reply | 1833 pg/mL

Ask | Check the records and state Maximal Response IFN for CC(C)(Cn1c(CO)nc2c(N)nc3cccnc3c21)NC(=O)C1CCCCC1
Reply | 1467 pg/mL

* * *

Reported Minimum Effective Concentration IFN values for the following molecules.
system: interferon (α) (IFN-α); test: Cytokine induction in human cells: IFN-α secreted by PBMC into culture media (ELISA); assay type: cell-based; conditions: Table 11; human PBMC; median where tested in more than one experiment
Provide only the numeric value, understood in µM.

- smiles-structure: "Nc1nc2ccccc2c2c1nc(CCO)n2CCCNC(=O)N1CCOCC1"
  Minimum Effective Concentration IFN / µM: 30
- smiles-structure: "Cc1nc2c(N)nc3ccccc3c2n1CCCNC(=O)c1ccccc1"
  Minimum Effective Concentration IFN / µM: 1.11
- smiles-structure: "CC(C)(CNS(C)(=O)=O)Cn1c(CCO)nc2c(N)nc3ccccc3c21"
  Minimum Effective Concentration IFN / µM: 0.37
- smiles-structure: "CCOCc1nc2c(N)nc3ccccc3c2n1CC(C)(C)NC(=O)C1CCCCC1"
  Minimum Effective Concentration IFN / µM: 0.37

Ask | Check the records and state Minimum Effective Concentration IFN for CCc1nc2c(N)nc3ccccc3c2n1CC(C)(C)CNC(=O)Nc1ccccc1
Reply | 0.014
